Biological target: JAK1 (Homo sapiens, UniProt P23458)
Construct: JAK1 (aa 850-1154) and TYK2 (aa 871-1187) are expressed with an N-terminally fused GST-tag; GST (N)
Sequence (P23458 850-1154): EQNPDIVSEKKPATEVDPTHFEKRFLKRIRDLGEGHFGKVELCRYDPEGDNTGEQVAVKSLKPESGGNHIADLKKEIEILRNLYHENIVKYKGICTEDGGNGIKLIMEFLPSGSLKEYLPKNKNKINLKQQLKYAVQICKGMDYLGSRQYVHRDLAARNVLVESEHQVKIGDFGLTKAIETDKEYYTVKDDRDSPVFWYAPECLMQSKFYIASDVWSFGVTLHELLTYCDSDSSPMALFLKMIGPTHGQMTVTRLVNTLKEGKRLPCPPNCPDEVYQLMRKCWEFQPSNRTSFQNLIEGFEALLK
Assay: JAK1 kinase assay (HTRF, inhibition of phosphorylation of a synthetic peptide)
Conditions: catalytic domain aa 850-1154, GST-tag; 7 μM ATP (Km); read-out: JAK1 kinase inhibitory activity (EC50)
QUANTITY: EC50

Hey, quick one: what's EC50 for each of these?
1. N#Cc1ccc(C(=O)C(=O)N2CCN(c3ncnc4[nH]ccc34)CC3(CC3)C2)cc1 [Example 100]
2. Cc1c(S(N)(=O)=O)csc1C(=O)N1CCN(c2ncnc3[nH]ccc23)CC2(CC2)C1 [Example 25]

< 100 nM
100 to 1000 nM

Hey, quick one: what's EC50 for each of these?
1. N#CCc1ccc(C(=O)N2CCN(c3ncnc4[nH]ccc34)CC3(CC3)C2)cc1 [Example 12]
2. N#CCOc1cccc(C(=O)N2CCN(c3ncnc4[nH]ccc34)CC3(CC3)C2)c1 [Example 14]
3. Cc1cc(S(N)(=O)=O)ccc1C(=O)N1CCN(c2ncnc3[nH]ccc23)CC2(CC2)C1 [Example 71]
4. O=C(c1cnsn1)N1CCN(c2ncnc3[nH]ccc23)CC2(CC2)C1 [Example 202]
5. Cc1[nH]c(C(=O)N2CCCN(c3ncnc4[nH]ccc34)CC23CC3)cc1C#N [Example 278]

100 to 1000 nM
100 to 1000 nM
100 to 1000 nM
100 to 1000 nM
< 100 nM
